Source: PubChem BioAssay AID328

Tested on: BDF1 mice, P388 leukemia ip, median survival T/C
test_description: NCI In Vivo Anticancer Drug Screen. Data for tumor model P388 Leukemia (intraperitoneal) in B6D2F1 (BDF1) mice
setup_conditions: endpoint: median survival time; dose: 50.0 mg/kg/injection; schedule: Q04DX003 (ip); vehicle: saline; higher = longer survival
Toxic doses and inconclusive results are not listed.
Exercise: for every item that follows, state its recorded T/C.

>  <molecule>
CN(C)CCCNC(CC#N)CCC#N (stereo not given)

>  <experimental_result>
100 % of control

$$$$
>  <molecule>
CC(=O)Nc1ccc(Cl)cc1C(=O)c1ccc[nH]1

>  <experimental_result>
102 % of control

$$$$
>  <molecule>
CC[n+]1ccc2cc(OC)c(OC)cc2c1Cc1ccc(OC)c(OC)c1

>  <experimental_result>
90 % of control

$$$$
>  <molecule>
Cc1nnc(NC2=NCCO2)s1

>  <experimental_result>
86 % of control

$$$$

I have 3 molecules here; please give me T/C for each one.
1. CN(C)c1ccc(C2OC3(CCCCC3)C[N+]23CCCC3)cc1 (stereo not given)
2. CC/C(=C\c1ccc(Cl)cc1)[N+](=O)[O-]
3. OCCOCCN1CCN(CCCN2c3ccccc3Sc3ccc(C(F)(F)F)cc32)CC1

OUT:
1. 100 % of control
2. 104 % of control
3. 117 % of control
